Some compounds, each annotated with its measured TGI.
tested on: SW-620 colon; test: NCI tumour cell line growth inhibition, 48 h

COMPOUND: COC(=O)C1=C(C)N(NC(=O)Nc2ccccc2)C2(N)N(NC(=O)Nc3ccccc3)C(C)=C(C(=O)OC)C12C(=O)OC (centres undefined)
TARGET OF ASSAY: SW-620 colon
TGI: > 100 µM
--
COMPOUND: NS(=O)(=O)C1CCCCC1C(=O)NNC(=O)C(=O)Nc1nc(=S)[nH][nH]1 (centres undefined)
TARGET OF ASSAY: SW-620 colon
TGI: > 100 µM
--
COMPOUND: Nc1nc(N)c(-c2ccccc2)c(C(=O)Nc2nccs2)n1
TARGET OF ASSAY: SW-620 colon
TGI: > 100 µM
--
COMPOUND: CC(=O)Nc1ccc(C(=O)NN2C(=O)CSC2c2ccccc2)cc1 (centres undefined)
TARGET OF ASSAY: SW-620 colon
TGI: > 100 µM
--
COMPOUND: Cn1ncc2c(c1=O)Nc1ccccc1S2(=O)=O
TARGET OF ASSAY: SW-620 colon
TGI: 32.4 µM
--
COMPOUND: CCOC(=O)N/N=C(/N)Cc1ccc(Cl)cc1
TARGET OF ASSAY: SW-620 colon
TGI: > 100 µM
--
COMPOUND: CCCCCCCCCCCCCCCC(=O)NCC(OCC)OCC
TARGET OF ASSAY: SW-620 colon
TGI: > 100 µM
--
COMPOUND: C/C(=N\NC(=O)c1ccncc1)c1ccccc1O
TARGET OF ASSAY: SW-620 colon
TGI: > 100 µM
--
COMPOUND: CNc1nc(OC)c2c(n1)[n+](C)cn2C
TARGET OF ASSAY: SW-620 colon
TGI: > 100 µM
--
COMPOUND: O=P1(C(O)c2ccccc2)N(Cc2ccccc2)[C@@H]2CCCC[C@H]2N1Cc1ccccc1 (some centres undefined)
TARGET OF ASSAY: SW-620 colon
TGI: > 100 µM
--
COMPOUND: CCOC(=O)c1ccc(-c2cccs2)[nH]1
TARGET OF ASSAY: SW-620 colon
TGI: > 100 µM
--
COMPOUND: N=c1sc(N2CCOCC2)nn1CC(=O)c1ccccc1
TARGET OF ASSAY: SW-620 colon
TGI: > 100 µM
--
COMPOUND: COc1ccc(OC)c2c(Nc3ccc(S(=O)(=O)O)c4cc(S(=O)(=O)O)cc(S(=O)(=O)O)c34)cc(C)nc12
TARGET OF ASSAY: SW-620 colon
TGI: > 100 µM
--
COMPOUND: COC(=O)c1ccccc1NCc1cc(O)ccc1O
TARGET OF ASSAY: SW-620 colon
TGI: 52 µM
--
COMPOUND: Nc1nc(N)c2ncn(Cc3ccccc3)c2n1
TARGET OF ASSAY: SW-620 colon
TGI: > 100 µM
--
COMPOUND: c1csc(-c2[nH]nc3c2CCc2ccccc2-3)c1
TARGET OF ASSAY: SW-620 colon
TGI: 46.1 µM
--
COMPOUND: COc1ccc(NC(=S)Nc2cccc(C)n2)cc1
TARGET OF ASSAY: SW-620 colon
TGI: > 100 µM
--
COMPOUND: CS(=O)(=O)Nc1ccc(Nc2c3ccccc3nc3cc(Cl)ccc23)cc1
TARGET OF ASSAY: SW-620 colon
TGI: 15.4 µM
--
COMPOUND: CCC(=C(c1ccc(OCCN(CC)CC)cc1)c1ccc(OCCN(CC)CC)cc1)c1ccc(Cl)cc1
TARGET OF ASSAY: SW-620 colon
TGI: 1.12 µM
--
COMPOUND: CCNC(=O)O/N=C1/C=C2CC[C@@H]3C(CC[C@@]4(C)C3CC[C@@H]4OC(=O)NCC)[C@@]2(C)CC1 (some centres undefined)
TARGET OF ASSAY: SW-620 colon
TGI: 11.4 µM
--
COMPOUND: Cn1c(=O)c2c(n(C)c1=O)n1c(=O)c3ccccc3nc1n2C
TARGET OF ASSAY: SW-620 colon
TGI: > 100 µM
--
COMPOUND: Nc1cc(O)c2cc(N=Nc3ccc(N=Nc4ccc(N=Nc5ccc6cc(S(=O)(=O)O)cc(S(=O)(=O)O)c6c5)c5ccccc45)c4cc(S(=O)(=O)O)ccc34)c(S(=O)(=O)O)cc2c1
TARGET OF ASSAY: SW-620 colon
TGI: > 100 µM
--
COMPOUND: CC(C)(CCc1nc2ccccc2[nH]1)C(=O)O
TARGET OF ASSAY: SW-620 colon
TGI: > 100 µM
--
COMPOUND: CC(=O)Oc1cc(OC(C)=O)c2c(c1C)CC[C@@H]1[C@@H]2CC[C@]2(C)[C@@H](OC(C)=O)CC[C@@H]12
TARGET OF ASSAY: SW-620 colon
TGI: 32.9 µM
